# target under test: hTLR7 (Homo sapiens)
# Construct: expressed in transfected cells; host or cells: HEK-Blue hTLR7 reporter cell line
# Sequence (Q9NYK1 27-1049): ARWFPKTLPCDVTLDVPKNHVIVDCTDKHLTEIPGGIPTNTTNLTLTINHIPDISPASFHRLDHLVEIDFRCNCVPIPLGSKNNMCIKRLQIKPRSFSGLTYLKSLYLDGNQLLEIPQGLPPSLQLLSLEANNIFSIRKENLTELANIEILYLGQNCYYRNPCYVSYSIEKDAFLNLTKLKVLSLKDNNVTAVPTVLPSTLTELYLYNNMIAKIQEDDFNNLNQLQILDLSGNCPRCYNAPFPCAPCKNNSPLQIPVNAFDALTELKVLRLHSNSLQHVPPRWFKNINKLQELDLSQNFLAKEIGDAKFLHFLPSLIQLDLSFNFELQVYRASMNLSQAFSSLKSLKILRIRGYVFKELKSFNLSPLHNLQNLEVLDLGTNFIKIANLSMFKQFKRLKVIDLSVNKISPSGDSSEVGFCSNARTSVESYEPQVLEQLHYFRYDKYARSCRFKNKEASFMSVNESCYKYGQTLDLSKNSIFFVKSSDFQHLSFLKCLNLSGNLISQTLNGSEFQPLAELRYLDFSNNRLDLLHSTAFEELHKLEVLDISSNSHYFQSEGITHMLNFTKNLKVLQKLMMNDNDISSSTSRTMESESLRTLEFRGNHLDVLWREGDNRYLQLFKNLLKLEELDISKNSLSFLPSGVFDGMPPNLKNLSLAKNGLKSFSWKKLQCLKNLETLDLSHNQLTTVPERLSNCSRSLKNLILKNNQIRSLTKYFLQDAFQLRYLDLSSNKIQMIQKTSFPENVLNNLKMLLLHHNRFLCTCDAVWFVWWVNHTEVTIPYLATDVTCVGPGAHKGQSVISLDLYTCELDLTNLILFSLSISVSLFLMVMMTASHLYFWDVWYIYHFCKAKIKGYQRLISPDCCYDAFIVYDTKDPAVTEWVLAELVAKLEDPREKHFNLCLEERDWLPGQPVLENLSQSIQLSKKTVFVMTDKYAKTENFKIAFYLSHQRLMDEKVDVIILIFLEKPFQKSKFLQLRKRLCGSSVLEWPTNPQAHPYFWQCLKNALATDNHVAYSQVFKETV
# assay notes: HEK-Blue hTLR7 reporter assay (NF-kB-induced SEAP, Quanti-Blue)
# Assay type: cell-based
# test settings: Table 13, TLR7; read-out: EC50
pEC50: −log10 of the molar value.
property measured: pEC50

Take a look at these entries with their results.
[
  {
    "compound": "CCCCOc1nc(N)c2[nH]c(=O)n(Cc3ccc(CN4CCC(CCNC(=O)[C@@H](N)CCCNC(=N)N)CC4)cc3)c2n1 [AXC-892]",
    "quantitative readout": 7.14
  },
  {
    "compound": "CCCCOc1nc(N)c2[nH]c(=O)n(Cc3ccc(CN4CCC(C5CCNCC5)CC4)cc3)c2n1 [AXC-898]",
    "quantitative readout": 7.30
  }
]

a. CCCCOc1nc(N)c2[nH]c(=O)n(Cc3ccc(CN4CCC(C5CCN(C(=O)CON)CC5)CC4)cc3)c2n1 [AXC-901]
b. CCCCOc1nc(N)c2[nH]c(=O)n(Cc3ccc(CN4CCC(CCNC(=O)c5ccc(N)c(OC)c5)CC4)cc3)c2n1 [AXC-895]
input: From the recorded data, which exceeds the other in pEC50: a or b ? State the label of the item chosen.
output: b
(b: 7.96, a: 7.32)
